system: resistant Acinetobacter baumannii producing OXA-23; experiment: MIC against Acinetobacter baumannii producing OXA-23; format: cell-based; details: Table 2; enzyme produced: OXA-23
// values below are reported MIC
measurementKind: MIC

>>> df
                                   molecule  measurementkind     result
0  C[C@@H](O)[C@H]1C(=O)N2C(C(=O)O)=C(S[C@@H]3CN[C@H](C(=O)Nc4cccc(C(=O)O)c4)C3)[C@H](C)[C@H]12              MIC  256 µg/mL
1  C[C@@H](O)[C@H]1C(=O)N2C(C(=O)O)=C(S[C@@H]3CN[C@H](CNS(N)(=O)=O)C3)[C@H](C)[C@H]12              MIC   32 µg/mL
2  CCC12CC(S[C@@H]3CN[C@H](C(=O)N(C)C)C3)=C(C(=O)O)N1C(=O)[C@@H]2[C@@H](C)O (some centres unmarked)              MIC    4 µg/mL
3  C[C@@H](O)[C@H]1C(=O)N2C(C(=O)O)=C(S[C@@H]3CN[C@H](C(=O)N(C)C)C3)[C@H](C)[C@H]12              MIC   64 µg/mL
4  C[C@@H](O)[C@H]1C(=O)N2C(C(=O)O)=C(SCCN=CN)C[C@H]12              MIC   32 µg/mL
